These entries and their values trace back to patent US5780245A.

# system: UniProt:P28223
# Sequence (P28223 whole entry, species assumed): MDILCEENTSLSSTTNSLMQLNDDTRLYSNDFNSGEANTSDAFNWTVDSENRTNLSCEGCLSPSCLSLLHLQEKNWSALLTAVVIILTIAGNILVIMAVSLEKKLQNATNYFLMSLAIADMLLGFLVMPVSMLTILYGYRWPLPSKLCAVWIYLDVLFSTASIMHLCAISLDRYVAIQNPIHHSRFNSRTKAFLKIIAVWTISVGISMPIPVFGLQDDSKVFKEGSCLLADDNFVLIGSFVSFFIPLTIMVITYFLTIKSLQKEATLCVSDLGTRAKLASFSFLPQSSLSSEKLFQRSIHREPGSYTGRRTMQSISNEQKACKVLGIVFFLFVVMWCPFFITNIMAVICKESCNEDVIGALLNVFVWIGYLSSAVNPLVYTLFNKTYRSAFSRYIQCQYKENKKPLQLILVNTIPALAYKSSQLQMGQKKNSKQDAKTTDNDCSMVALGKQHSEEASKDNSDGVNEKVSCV
# assay-overview: binding to 5-HT2 (Table 1 comparison)
pKd: −log10 of the molar value.
Listing: pKd of selected molecules
metric-name: pKd

CC(=O)NCCc1c[nH]c2ccc(O)cc12 : 5.50
CCCN(CCC)C1CCc2cccc(O)c2C1 (stereo not drawn) : 5.00
c1ccc2nc(N3CCNCC3)ccc2c1 : 6.20
Cc1nc2n(c(=O)c1CCN1CCC(C(=O)c3ccc(F)cc3)CC1)CCS2 : 8.60
CN1[C@@H]2CC[C@H]1C[C@@H](OC(=O)c1cc(Cl)cc(Cl)c1)C2 : 6.70

----------
# system: UniProt P28335
# assay-overview: biochemical
# Type: binding
Listing: Kd of selected molecules
metric-name: Kd (nM)

Cn1cc(CCN)c2cc(O)ccc21 [1-ME-5-HT] : 3.98
CN1C2CCC1CC(OC(=O)c1c[nH]c3ccccc13)C2 (stereo not drawn) [ICS 205-930] : 25100
c1ccc2nc(N3CCNCC3)ccc2c1 [Quipazine] : 200

----------
# system: whole (N) 5HT2C receptor (Mus musculus, UniProt Q02152)
# assay-overview: biochemical
# Assay type: binding
# condition-label: [^125 I]DOI displacement, Cos-7 membranes, whole receptor; at least three experiments in triplicate; read-out: pKD, binding to the COS N cells (converted)
Listing: log10(Kd) of selected compounds
metric-name: log10(Kd) (log10 of the value in µM)

CN1[C@@H]2CC[C@H]1C[C@@H](OC(=O)c1cc(Cl)cc(Cl)c1)C2 : 1.38
c1ccc2nc(N3CCNCC3)ccc2c1 : 0.82
Cc1nc2n(c(=O)c1CCN1CCC(C(=O)c3ccc(F)cc3)CC1)CCS2 : -1.61
O=C(CCCN1CCC2(CC1)C(=O)NCN2c1ccccc1)c1ccc(F)cc1 : -1.30
O=C(c1ccc(F)cc1)C1CCN(CCn2c(=O)[nH]c3ccccc3c2=O)CC1 : -0.69

----------
Listing: Kd of selected compounds
# system: truncated (T) 5HT2C receptor (Mus musculus, UniProt Q02152, S167T)
# assay-overview: biochemical
# Assay type: binding
# condition-label: [^125 I]DOI displacement, COS membranes, truncated receptor; at least three experiments in triplicate; read-out: pKD, binding to the COS T (converted)
metric-name: Kd

NCCc1c[nH]cn1 [Histamine] : > 100 µM
COc1ccc2[nH]cc(CCN(C)C)c2c1 [NNdiMe-5-MeOT] : 45.7 µM
Cc1[nH]c2ccc(O)cc2c1CCN [2-Me-5-HT] : > 100 µM
NCCc1c[nH]c2ccccc12 [Tryptamine] : 14.5 µM
O=C(CCCN1CCC2(CC1)C(=O)NCN2c1ccccc1)c1ccc(F)cc1 [Spiperone] : > 100 µM
CN1C2CCC1CC(OC(=O)c1c[nH]c3ccccc13)C2 (centres unmarked) [ICS 205-930] : > 100 µM
CCCN(CCC)C1CCc2cccc(O)c2C1 (centres unmarked) [8-OH-DPAT] : > 100 µM
Cn1cc(CCN)c2cc(O)ccc21 [1-ME-5-HT] : 60.3 µM

----------
# system: UniProt Q02152
metric-name: Kd (nM)

COc1cc(CC(C)N)c(OC)cc1I (stereo not shown) : 25.8

----------
Listing: Kd of selected compounds
# system: truncated (T) 5HT2C receptor (Mus musculus, UniProt Q02152, S167T)
# assay-overview: biochemical
# Format: binding
# condition-label: [^125 I]DOI displacement, COS membranes, truncated receptor; at least three experiments in triplicate; read-out: pKD, binding to the COS T (converted)
metric-name: Kd (µM)

CC(=O)NCCc1c[nH]c2ccc(O)cc12 : 0.2
c1ccc2nc(N3CCNCC3)ccc2c1 : 14.1

----------
Listing: Kd of selected molecules
# system: UniProt P28335
# assay-overview: biochemical
# Type: binding
# condition-label: Table 1 comparison column; source of values not stated
metric-name: Kd

CN1CCC(=C2c3ccccc3C=Cc3ccccc32)CC1 : 12.6 nM
Cc1nc2n(c(=O)c1CCN1CCC(C(=O)c3ccc(F)cc3)CC1)CCS2 : 50.1 nM
NCCc1c[nH]cn1 : > 100000 nM
O=C(CCCN1CCC2(CC1)C(=O)NCN2c1ccccc1)c1ccc(F)cc1 : 1260 nM
CN1[C@@H]2CC[C@H]1C[C@@H](OC(=O)c1cc(Cl)cc(Cl)c1)C2 : > 10000 nM

----------
# system: truncated (T) 5HT2C receptor (Mus musculus, UniProt Q02152, S167T)
# assay-overview: biochemical
# Format: binding
metric-name: Kd

O=C(c1ccc(F)cc1)C1CCN(CCn2c(=O)[nH]c3ccccc3c2=O)CC1 : > 100 µM

----------
# system: 5-HT1C (Homo sapiens, UniProt P28335)
# Sequence (P28335 33-458, species assumed): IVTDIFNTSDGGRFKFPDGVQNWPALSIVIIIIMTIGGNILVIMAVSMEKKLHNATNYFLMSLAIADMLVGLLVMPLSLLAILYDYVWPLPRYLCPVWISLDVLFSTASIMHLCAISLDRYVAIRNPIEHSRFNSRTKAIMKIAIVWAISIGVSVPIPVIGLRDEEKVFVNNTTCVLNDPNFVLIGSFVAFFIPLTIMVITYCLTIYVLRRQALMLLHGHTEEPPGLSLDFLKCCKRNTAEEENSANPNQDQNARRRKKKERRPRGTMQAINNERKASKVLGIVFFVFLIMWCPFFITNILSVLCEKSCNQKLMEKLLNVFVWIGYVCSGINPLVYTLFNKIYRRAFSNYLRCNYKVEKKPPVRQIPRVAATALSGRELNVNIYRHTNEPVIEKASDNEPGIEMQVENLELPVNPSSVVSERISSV
# assay-overview: biochemical
# Assay type: binding
metric-name: Kd (µM)

Cc1[nH]c2ccc(O)cc2c1CCN [2-Me-5-HT] : 1.58
NCCc1c[nH]c2ccccc12 [Tryptamine] : 0.0631
CC(=O)NCCc1c[nH]c2ccc(O)cc12 [N-Acetyl-5-HT] : 0.794
CC[C@@H](CO)NC(=O)[C@@H]1C=C2c3cccc4c3c(cn4C)C[C@H]2N(C)C1 [Methysergide] : 0.00251
Cc1nc2sccn2c(=O)c1CCN1CCC(=C(c2ccc(F)cc2)c2ccc(F)cc2)CC1 [Ritanserin] : 0.00251

----------
Listing: pKd of selected compounds
# system: whole (N) 5HT2C receptor (Mus musculus, UniProt Q02152)
# assay-overview: biochemical
# Format: binding
pKd: −log10 of the molar value.
metric-name: pKd

CC[C@@H](CO)NC(=O)[C@@H]1C=C2c3cccc4c3c(cn4C)C[C@H]2N(C)C1 [Methysergide] : 7.90
CCCN(CCC)C1CCc2cccc(O)c2C1 (stereo not shown) [8-OH-DPAT] : 5.19
Cc1[nH]c2ccc(O)cc2c1CCN [2-Me-5-HT] : 5.18
COc1ccc2[nH]cc(CCN(C)C)c2c1 [NNdiMe-5-MeOT] : 5.13
Cn1cc(CCN)c2cc(O)ccc21 [1-ME-5-HT] : 5.60
NCCc1c[nH]c2ccccc12 [Tryptamine] : 6.70
CC(=O)NCCc1c[nH]c2ccc(O)cc12 [N-Acetyl-5-HT] : 8.15

----------
Listing: Kd of selected compounds
# system: truncated (T) 5HT2C receptor (Mus musculus, UniProt Q02152, S167T)
# Sequence (Q02152 with tags, fused parts or gaps S167T): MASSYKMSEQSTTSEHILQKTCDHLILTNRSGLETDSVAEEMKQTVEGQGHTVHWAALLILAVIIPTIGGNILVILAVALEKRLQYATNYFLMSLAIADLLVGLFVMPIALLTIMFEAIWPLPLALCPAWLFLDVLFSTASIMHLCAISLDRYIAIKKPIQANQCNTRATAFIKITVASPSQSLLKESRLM
# assay-overview: biochemical
# Assay type: binding
# condition-label: [^125 I]DOI displacement, COS membranes, truncated receptor; at least three experiments in triplicate; read-out: pKD, binding to the COS T (converted)
metric-name: Kd

CN(C)CCCN1c2ccccc2Sc2ccc(Cl)cc21 [Chlorpromazine] : > 100 µM
CN1[C@@H]2CC[C@H]1C[C@@H](OC(=O)c1cc(Cl)cc(Cl)c1)C2 [MDL 72222] : > 100 µM
Cc1nc2n(c(=O)c1CCN1CCC(C(=O)c3ccc(F)cc3)CC1)CCS2 [Setoperone] : > 100 µM
